Assay notes: Components of the Cytosolic LPS Sensing Pathway: Gene Identification via Genome-wide siRNA Screen;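 further: robust z of the log signal after scaling to non-targeting control siRNA wells of the plate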
Cond: RAW264.7 macrophages, IL-1a HTRF, actives lie on both sides, screened at 100 nM (by protocol), cells primed 5 h with Pam3CSK4 first
Screen size: about 53,000 sequences; about 3,700 (7%) were called active. Only a selection was taken, and actives are over-represented in it overall.
Parameter measured: z-score
# output: bare number, no unit

GGUCAUACUCUAAUCGGACTT against Ctss; 0.672
GCAAAUUCACCGGAAAAUGTT against Sorbs3; 1.04

// next item, z-score requested
Asked: Quick one: z-score of CCCUUAAAGGGUAGCAUUUTT against Ncan ?
Given back: 0.837

---

Assay notes: Components of the Cytosolic LPS Sensing Pathway: Gene Identification via Genome-wide siRNA Screen;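 further: robust z of the log signal after scaling to non-targeting control siRNA wells of the plate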
Cond: RAW264.7 macrophages, IL-1a HTRF, actives lie on both sides, screened at 100 nM (by protocol), cells primed 5 h with Pam3CSK4 first
In all, about 53,000 sequences went through this assay and about 3,700 (7%) were called active. This is one part of a sample in which actives are shown more often than they occur.
Parameter measured: z-score
Reply: number alone, nothing else.

CCUGACAGUAGUUACUAUUTT against Olfr1154; -0.945

Asked: What measured z-score goes with GGUGCAUGAAGAGUUAAAATT against Jade1 ?
Given back: 1.5

Asked: Next sequence up: GGACUUGAACAACUUACAATT against Plcb1
Given back: 2.37

Asked: Next record, please: CGAUGAUGAACGAUGGACATT against Mmp3
Given back: 2.47

Asked: Would you mind doing GCCUUUACUGGAUUCAUUGTT against Acadm as well?
Given back: 2.53

Asked: Do the same for GGCCCAAGCUCAACACAAUTT against Aida please
Given back: 2.31

Asked: // same read-out, input: GCAAAUUUUAUCAACCGCATT against Mical3
Given back: -0.0618

---

Recorded z-score values for a group of sequences are listed next.
Assay notes: Components of the Cytosolic LPS Sensing Pathway: Gene Identification via Genome-wide siRNA Screen;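 further: robust z of the log signal after scaling to non-targeting control siRNA wells of the plate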
Cond: RAW264.7 macrophages, IL-1a HTRF, actives lie on both sides, screened at 100 nM (by protocol), cells primed 5 h with Pam3CSK4 first
Out of some 53,000 sequences screened, about 3,700 (7%) were called active. This is one part of a sample in which actives are shown more often than they occur.
Answer using only a numeral; do not append any unit.

Here are 4 sequences together with their reported answers.
GCAACCAUCGUAGCAGAUCTT against Aaas; 1.54
GCUGAGGCAUAAAAACGAGTT against Atad3a; -0.643
CGAAUGCUUAUUUAGGUUGTT against Kpna4; -0.387
GCAUGCAUGCUAUUGUUUUTT against 4931431C16Rik; 0.336

Asked: May I ask what z-score has been recorded for GGAAAAAGUGCAUUUAUGUTT against Prpf40a ?
Given back: -1.16

Asked: And what about the sequence GGAUGUAACUGAAAGAGAATT against Fam133b ?
Given back: -1.11

Asked: And what about the sequence GGACUUGGUUUAUGAAACATT against Kif9 ?
Given back: -1.33

Asked: # repeat for GCCUUUCAUGGAUUAACCUTT against Gsdmc
Given back: -2.03

Asked: Quick one: GCCAGACACUUAAUCCCGUTT against Unc13d
Given back: 0.147
